# SYSTEM NAME: T1, recombinant human midkine (huMK) (human, UniProt P21741 21-143)
# T1 construct: also called human MK; Human MK
# T1 sequence (looked up): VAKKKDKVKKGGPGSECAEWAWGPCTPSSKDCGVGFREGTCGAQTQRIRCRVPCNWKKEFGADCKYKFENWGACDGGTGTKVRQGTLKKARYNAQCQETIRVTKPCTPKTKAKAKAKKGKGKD
# METHOD NOTES: ELISA, plate coated with huMK
Measured EC50, listed per entry.
Write the answer as a number in nM, unit excluded.

Use these answered entries as a reference point.
>  <BINDER>
IP14-H3L3 (antibody, V domains shown, also called Hv3 Lv3) VH: QVQLVQSGAEVKKPGASVKVSCKASGQSFSSYWMNWVRQAPGQGLEWMGMIHPSDSETILNQKFKDKVTMTRDTSTSTVYMELSSLRSEDTAVYYCARWSAKRGDFWGQGTLVTVSS VL: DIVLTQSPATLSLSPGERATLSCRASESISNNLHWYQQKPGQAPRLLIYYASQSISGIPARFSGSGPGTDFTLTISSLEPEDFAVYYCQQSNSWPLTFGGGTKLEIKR

>  <REPORTED RESULT>
5.79

$$$$
>  <BINDER>
IP14-H6L1 (antibody, V domains shown, also called Hv6 Lv1) VH: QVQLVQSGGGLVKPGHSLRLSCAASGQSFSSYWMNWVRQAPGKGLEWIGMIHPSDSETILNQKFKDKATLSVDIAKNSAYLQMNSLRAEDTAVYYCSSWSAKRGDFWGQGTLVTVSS VL: EIVLTQSPATLSLSPGERANLSCRASESISNNLHWYQQKPHQAPRLLIKYASQSISGIPARFSGSGPGTDFNLTISSVEPEDFAVYYCQQSNSWPLTFGGGTKLEIKR

>  <REPORTED RESULT>
0.097

$$$$

We now examine a further binder.
Ask | What does the record list as EC50 for mouse-human chimeric IP14 antibody (antibody, V domains shown, also called chimeric antibody; Hv0 Lv0) VH: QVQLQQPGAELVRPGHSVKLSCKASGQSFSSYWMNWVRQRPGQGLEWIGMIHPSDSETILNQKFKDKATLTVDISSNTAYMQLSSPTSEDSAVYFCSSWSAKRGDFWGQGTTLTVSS VL: DIVLTQSPATLSVTPGDSVNLSCRASESISNNLHWYQQKSHESPRLLIKYASQSISGIPSRFSGSGSGTDFNLSVNSVETEDFGMYFCQQSNSWPLTFGAGTKLELKR ?
Reply | 0.104
